Here's a batch of molecules along with measured IC50 for Butyrylcholinesterase (Rattus norvegicus, UniProt Q9JKC1).
Please reply with the bare figure in nM and do not write the unit itself.

# structure_smiles, IC50 / nM
rows = [
    ("N#Cc1ccc2[nH]cc(C(=O)CCCN3CCN(c4ccc5nc6c(c(N)c5c4)CCCC6)CC3)c2c1", 250),
    ("N#Cc1ccc2[nH]cc(C(=O)CCCN3CCN(c4cccc5c(N)c6c(nc45)CCCC6)CC3)c2c1", 1850),
    ("Cc1ccc2[nH]cc(CCCCN3CCN(c4cccc5nc6c(c(N)c45)CCCC6)CC3)c2c1", 360),
    ("N#Cc1ccc2[nH]cc(CCCCN3CCN(c4cccc5nc6c(c(N)c45)CCCC6)CC3)c2c1", 340),
    ("N#Cc1ccc2[nH]cc(CCCCN3CCN(c4cccc5nc6c(c(N)c45)CCC6)CC3)c2c1", 100),
]

Identify measured IC50 obtained with Butyrylcholinesterase (Rattus norvegicus, UniProt Q9JKC1) for N#Cc1ccc2[nH]cc(CCCCN3CCN(c4ccc5nc6c(c(N)c5c4)CCCC6)CC3)c2c1 . 640

# return IC50 for N#Cc1ccc2[nH]cc(CCCCN3CCN(c4ccc5c(N)c6c(nc5c4)CCCC6)CC3)c2c1 , test system: Butyrylcholinesterase (Rattus norvegicus, UniProt Q9JKC1) 250

Identify measured IC50 obtained with Butyrylcholinesterase (Rattus norvegicus, UniProt Q9JKC1) for N#Cc1ccc2[nH]cc(CCCN3CCN(c4cccc5nc6c(c(N)c45)CCCC6)CC3)c2c1 . 420

Source of measurements: ChEMBL document CHEMBL4118156
